System: TNFα
Test: Cot Monocyte TNFα Cell Based Assay
Settings: Homo sapiens, Monocyte, read-out: EC50 TNF, LPS-stimulated human monocytes, TNFα
recordedEndpoint: EC50 (nM)

{"columns": ["molecule", "measuredTarget", "reportedResult"],
 "data": [
  ["[2H]C([2H])([2H])C([2H])([2H])C(Nc1c(C#N)cnc2c(Cl)cc(N[C@@]([2H])(c3ccc(F)nc3)c3cn(C4CC4)nn3)cc12)c1ccccc1 (stereo partly drawn) [Example 115]", "TNFα", 119],
  ["CC(C)(C)CNc1c(C#N)cnc2c(C#N)cc(N[C@H](c3cn(C4(C#N)CC4)nn3)c3cccc4ncsc34)cc12 [Example 67]", "TNFα", 32],
  ["Cn1ccc2c([C@H](Nc3cc(Cl)c4ncc(C#N)c(NCC(C)(C)C)c4c3)c3cn(C(CF)CF)nn3)cccc2c1=O [Example 777]", "TNFα", 46],
  ["CC(C)(C)CNc1c(C#N)cnc2c(Cl)cc(N[C@H](c3cn(C4(C(F)(F)F)CC4)nn3)c3ccc(F)c4cnccc34)cc12 [Example 616]", "TNFα", 104],
  ["N#Cc1cnc2c(Cl)cc(N[C@H](c3cn(CCO)nn3)c3cccnc3Cl)cc2c1Nc1ccc(F)c(Cl)c1 [Example 331]", "TNFα", 173],
  ["Cn1ncc2cccc([C@H](Nc3cc(Cl)c4ncc(C#N)c(NCC(C)(C)C)c4c3)c3cn(C4(C(F)F)CC4)nn3)c21 [Example 603]", "TNFα", 107]
]}

P: COCCn1cc([C@@H](Nc2cc(Cl)c3ncc(C#N)c(Nc4ccc(F)c(Cl)c4)c3c2)c2cscn2)nn1 [Example 358]
Q: Cc1nc2cccc([C@H](Nc3cc(C#N)c4ncc(C#N)c(NCC(C)(C)C)c4c3)c3cn(C4CC4)nn3)c2s1 [Example 427]
R: CC(C)(C)CNc1c(C#N)cnc2c(Cl)cc(N[C@H](c3cn(C4(C5CC5)CC4)nn3)c3cccc4ncccc34)cc12 [Example 691]
Exercise: Rank order required: EC50, descending. Please respond by ranking the labels in the order requested.
Solution: P, R, Q

###

System: TNFα
Assay: Cot Monocyte TNFα Cell Based Assay
Conditions: Homo sapiens, Monocyte, read-out: EC50 TNF, LPS-stimulated human monocytes, TNFα
pEC50: −log10 of the molar value.
recordedEndpoint: pEC50

// below: answered molecules
{"columns": ["molecule", "measuredTarget", "recordedEndpoint", "reportedResult"],
 "data": [
  ["CC(C)(C)CNc1c(C#N)cnc2c(Cl)cc(N[C@@H](c3ccc4cccnc4c3)c3cn(C4(C(F)(F)F)CC4)nn3)cc12", "TNFα", "pEC50", 6.16],
  ["[2H][C@](Nc1cc(Cl)c2ncc(C#N)c(NC3CCOCC3(C)C)c2c1)(c1ccc(F)nc1)c1cn(C2CC2)nn1 (some centres unmarked)", "TNFα", "pEC50", 7.19]
]}

A: Cc1nc(F)ccc1[C@H](Nc1cc(Cl)c2ncc(C#N)c(NCC(C)(C)C)c2c1)c1nnn(C2CC2)c1F
B: CC(C)(C)n1cc([C@@H](Nc2cc(Cl)c3ncc(C#N)c(Nc4ccc(F)c(Cl)c4)c3c2)c2cscn2)nn1
Exercise: // which entry has the larger pEC50 value, A or B ? Reply briefly: the label of your chosen item.
Solution: A
(A: 7.21, B: 6.13)

###

System: TNFα
Assay: Cot Monocyte TNFα Cell Based Assay
Details: Homo sapiens, Monocyte, read-out: EC50 TNF, LPS-stimulated human monocytes, TNFα
recordedEndpoint: EC50 (nM)

{"columns": ["compound", "measuredTarget", "readoutUnits", "EC50"],
 "data": [
  ["Cn1cc2c([C@H](Nc3cc(C#N)c4ncc(C#N)c(NCC(C)(C)C)c4c3)c3cn(C4(C(F)(F)F)CC4)nn3)cccc2n1 [Example 558]", "TNFα", "nM", 72]
]}

P: Cc1nc(F)ccc1[C@H](Nc1cc(Cl)c2ncc(C#N)c(NCC(C)(C)C)c2c1)c1cn(C2(C(=O)N(C)C)CC2)nn1 [Example 553]
Q: CC(C)(C)CNc1c(C#N)cnc2c(Cl)cc(N[C@H](c3cn(C4(C(F)F)CC4)nn3)c3cccc4c(=O)n(CC(F)F)ccc34)cc12 [Example 743]
Exercise: // which entry has the larger EC50 value, P or Q ? Reply briefly: the label of your chosen item.
Solution: Q
(Q: 116 nM, P: 64 nM)
